Tested on: Cryptococcus neoformans
assay-text: Antifungal activity against Cryptococcus neoformans 103 assessed as growth inhibition by agar dilution method
Type: functional
Exam item: assign true (1) to entries whose MIC is below 50 µg/mL and false (0) to entries at or above 50 µg/mL. Note that a value of exactly 50 µg/mL receives false (0).

Study these solved cases before continuing.
| molecule-smiles | group-label |
| --- | --- |
| C[N+](C)(CCCCCOc1ccccc1Cl)Cc1ccc(Br)o1.[Br-] | false (0) |
| C[N+](C)(CCCCCCCCCCCCOc1c(Br)cc(Br)cc1Br)Cc1ccc(Br)o1.[Br-] | false (0) |
| Cc1cc(OCCCC[N+](C)(C)Cc2ccc([N+](=O)[O-])o2)c(C(C)C)cc1Cl.[Br-] | true (1) |
| C[N+](C)(CCCCCCCCCCCCCCOc1c(Br)cc(Br)cc1Br)Cc1ccc(Br)o1.Cc1ccc(S(=O)(=O)[O-])cc1 | false (0) |
| Cc1ccc(C[N+](C)(C)CCCCCOc2c(Br)cc(Br)cc2Br)o1.[Br-] | true (1) |
| C[N+](C)(CCCCCCCOc1c(Br)cc(Br)cc1Br)Cc1ccc(Br)o1.[Br-] | true (1) |

-- ask Record Cc1cc(OCCCCCCCCCC[N+](C)(C)Cc2ccc([N+](=O)[O-])o2)c(C(C)C)cc1Cl.Cc1ccc(S(=O)(=O)[O-])cc1 : is its MIC strictly below 50 µg/mL?
-- reply false (0)

-- ask Another: C[N+](C)(CCCCOc1ccc(Cl)cc1)Cc1ccc([N+](=O)[O-])o1.[Br-]
-- reply false (0)
